- Test system: cervical carcinoma cell lines
- method-notes: Cell based assay, cell viability (CellTiter-Glo), cervical carcinoma cell lines
- condition-label: Homo sapiens; HeLa cells
pIC50: −log10 of the molar value.
# pIC50 per entry

## Input Recall and state the measured pIC50 for CSc1c(C(C)=O)c(=O)c2c(Cl)ccc(Br)c2n1S(=O)(=O)c1ccc(C(C)(C)C)cc1 .
## Output < 5.00

## Input Recall and state the measured pIC50 for CC(=O)c1c([S+]([O-])Cc2ccc(Cl)nc2)[nH]c2c(Br)ccc(Cl)c2c1=O (stereo not shown) .
## Output < 5.70

## Input Recall and state the measured pIC50 for CC(=O)c1c([S+]([O-])Cc2ccc(NS(C)(=O)=O)cc2)[nH]c2c(Br)ccc(Cl)c2c1=O (stereo not shown) .
## Output < 5.70

## Input Recall and state the measured pIC50 for CC(=O)c1c([S+]([O-])Cc2ccc(C(F)(F)F)cc2)[nH]c2c(Br)ccc(Cl)c2c1=O (stereo not shown) .
## Output < 5.00

## Input Recall and state the measured pIC50 for CC(=O)c1c([S+]([O-])Cc2ccc(Cl)cc2)[nH]c2c(Br)ccc(Cl)c2c1=O (stereo not shown) .
## Output < 5.00

## Input Recall and state the measured pIC50 for CC(=O)c1c([S+]([O-])CN2C(=O)c3ccccc3C2=O)[nH]c2c(Cl)ccc(Cl)c2c1=O (stereo not shown) .
## Output < 5.00

Now turn to the next molecule.
## Input Recall and state the measured pIC50 for CC(=O)c1c([S+]([O-])Cc2ccc(S(F)(F)(F)(F)F)cc2)[nH]c2c(F)ccc(F)c2c1=O (stereo not shown) .
## Output < 5.00

###

- Test system: lung cancer cell lines (e.g. NCI-H23, NCI-H1229)
- method-notes: Cell based assay, cell viability (CellTiter-Glo), lung cancer cell lines
- condition-label: Homo sapiens; NCI-H460 cells; 72 hours treatment; CellTiter-Glo; read-out: IC50, lung cancer cell line NCI-H460
pIC50: −log10 of the molar value.
# pIC50 per entry

## Input Recall and state the measured pIC50 for CC(=O)c1c(S(=O)(=O)Cc2ccccc2)[nH]c2c(Br)ccc(Cl)c2c1=O .
## Output < 5.70

## Input Recall and state the measured pIC50 for COCSc1[nH]c2c(Br)ccc(Cl)c2c(=O)c1C(C)=O .
## Output < 5.70

## Input Recall and state the measured pIC50 for CC(=O)c1c([S+]([O-])Cc2ccc(C#N)s2)[nH]c2c(Br)ccc(Cl)c2c1=O (stereo not drawn) .
## Output 5.77

## Input Recall and state the measured pIC50 for CC(=O)c1c(SCc2cc(Cl)ccc2Cl)[nH]c2c(Br)ccc(Cl)c2c1=O .
## Output < 5.70

## Input Recall and state the measured pIC50 for COc1cccc(C[S+]([O-])c2[nH]c3c(Br)ccc(Cl)c3c(=O)c2C(C)=O)c1 (stereo not drawn) .
## Output < 5.70

## Input Recall and state the measured pIC50 for Cc1cc(C[S+]([O-])c2[nH]c3c(Cl)ccc(Cl)c3c(=O)c2C(=O)C2CC2)no1 (stereo not drawn) .
## Output 5.84

## Input Recall and state the measured pIC50 for CC(=O)c1c([S+]([O-])Cc2ccc(OC(F)(F)F)cc2)[nH]c2c(Br)ccc(Cl)c2c1=O (stereo not drawn) .
## Output < 5.70

## Input Recall and state the measured pIC50 for CSc1c(C(C)=O)c(=O)c2c(Cl)ccc(Br)c2n1C .
## Output < 5.70

## Input Recall and state the measured pIC50 for CC(=O)c1c([S+]([O-])Cc2cc(Cl)ccc2Cl)[nH]c2c(Br)ccc(Cl)c2c1=O (stereo not drawn) .
## Output 5.76

## Input Recall and state the measured pIC50 for CSc1[nH]c2ccc(F)cc2c(=O)c1C(C)=O .
## Output < 5.70

More entries:
## Input Recall and state the measured pIC50 for CC(=O)c1c(SCc2cc(F)cc(F)c2)[nH]c2c(Br)ccc(Cl)c2c1=O .
## Output < 5.70

## Input Recall and state the measured pIC50 for CC(=O)c1c(SCc2ccccc2)[nH]c2c(Br)ccc(Cl)c2c1=O .
## Output < 5.70

## Input Recall and state the measured pIC50 for CC(=O)c1c(SCc2cccc(C#N)c2)[nH]c2c(Br)ccc(Cl)c2c1=O .
## Output < 5.70

## Input Recall and state the measured pIC50 for CC(=O)c1c([S+]([O-])Cc2ccc(Cl)cc2)[nH]c2c(Br)ccc(Cl)c2c1=O (stereo not drawn) .
## Output < 5.70

## Input Recall and state the measured pIC50 for CC(=O)c1c([S+](C)[O-])n(S(=O)(=O)C(F)(F)F)c2c(Br)ccc(Cl)c2c1=O (stereo not drawn) .
## Output < 5.70

## Input Recall and state the measured pIC50 for CC(=O)c1c([S+]([O-])CC#N)[nH]c2c(Br)ccc(Cl)c2c1=O (stereo not drawn) .
## Output < 5.70

## Input Recall and state the measured pIC50 for CSc1c(C(C)=O)c(=O)c2c(Cl)ccc(Br)c2n1S(C)(=O)=O .
## Output < 5.70

## Input Recall and state the measured pIC50 for CC(=O)c1c([S+]([O-])Cc2ccccc2)nc2c(Br)ccc(Cl)c2c1O (stereo not drawn) .
## Output < 5.70

## Input Recall and state the measured pIC50 for CC(=O)c1c([S+]([O-])Cc2ccc(C(F)(F)F)o2)[nH]c2c(F)ccc(F)c2c1=O (stereo not drawn) .
## Output < 5.70

## Input Recall and state the measured pIC50 for CC(=O)c1c([S+]([O-])Cc2c(F)c(F)c(F)c(F)c2F)[nH]c2c(Br)ccc(Cl)c2c1=O (stereo not drawn) .
## Output < 5.70

## Input Recall and state the measured pIC50 for CSc1c(C(C)=O)c(=O)c2c(Cl)ccc(Br)c2n1S(=O)(=O)c1ccc(C(C)(C)C)cc1 .
## Output < 5.70

## Input Recall and state the measured pIC50 for CC(=O)c1c([S+]([O-])Cc2cccc(F)c2)[nH]c2c(Br)ccc(Cl)c2c1=O (stereo not drawn) .
## Output < 5.70

## Input Recall and state the measured pIC50 for CC(=O)c1c([S+]([O-])Cc2cccc(I)c2)[nH]c2c(Br)ccc(Cl)c2c1=O (stereo not drawn) .
## Output < 5.70

## Input Recall and state the measured pIC50 for Cc1cc(C[S+]([O-])c2[nH]c3c(Br)ccc(Cl)c3c(=O)c2C(=O)C(C)C)no1 (stereo not drawn) .
## Output 5.85

## Input Recall and state the measured pIC50 for CC(=O)c1c(SCc2cccc(F)c2)[nH]c2c(Br)ccc(Cl)c2c1=O .
## Output < 5.70

## Input Recall and state the measured pIC50 for CC(=O)c1c([S+](C)[O-])n(C(=O)c2ccc(Br)cc2)c2c(Br)ccc(Cl)c2c1=O (stereo not drawn) .
## Output < 5.70

## Input Recall and state the measured pIC50 for CC(=O)c1c([S+]([O-])Cc2ccc(F)c(Cl)c2)[nH]c2c(Br)ccc(Cl)c2c1=O (stereo not drawn) .
## Output 5.85

###

- System: blood cancer cell lines (e.g. HL-60, Jurkat, Raji, Ramos, Daudi, MOLT-4)
- method-notes: Cell based assay, cell viability (CellTiter-Glo), blood cancer cell lines
- condition-label: Homo sapiens, blood cancer cell line HL-60, 72 hours, read-out: IC50, HL-60
# IC50 per entry

Use the examples below as a reference point.
## Input Recall and state the measured IC50 for COc1cccc2[nH]c(SCc3ccc(S(F)(F)(F)(F)F)cc3)c(C(C)=O)c(=O)c12 .
## Output > 2 µM

## Input Recall and state the measured IC50 for CC(=O)c1c([S+]([O-])C(C)C)[nH]c2c(Br)ccc(Cl)c2c1=O (stereo not shown) .
## Output > 2 µM

## Input Recall and state the measured IC50 for CC(=O)c1c([S+]([O-])Cc2cccc(C#N)c2)[nH]c2c(Br)ccc(Cl)c2c1=O (stereo not shown) .
## Output 1.06 µM

Now turn to the next compound.
## Input Recall and state the measured IC50 for CSc1c(C(C)=O)c(=O)c2c(Cl)ccc(Br)c2n1S(=O)(=O)c1ccc([N+](=O)[O-])cc1 .
## Output > 2 µM

###

- Tested on: bladder cancer cell lines
- method-notes: Cell based assay, cell viability (CellTiter-Glo), bladder cancer cell lines
- condition-label: Homo sapiens, UMUC3; UM-UC-3 cells; 72 hours treatment; 0 to 2 μM; CellTiter-Glo; read-out: IC50, bladder cancer cell line UM-UC-3
pIC50: −log10 of the molar value.
# pIC50 per entry

Use the examples below as a reference point.
## Input Recall and state the measured pIC50 for CC(=O)c1c([S+](C)[O-])n(S(=O)(=O)C(F)(F)F)c2c(Br)ccc(Cl)c2c1=O (stereo not drawn) .
## Output < 5.70

## Input Recall and state the measured pIC50 for CSc1[nH]c2ccc(F)cc2c(=O)c1C(C)=O .
## Output < 5.70

## Input Recall and state the measured pIC50 for CC(=O)c1c(S/C=C\C(=O)O)[nH]c2c(Br)ccc(Cl)c2c1=O .
## Output < 5.70

More entries:
## Input Recall and state the measured pIC50 for CC(=O)c1c([S+]([O-])Cc2ccc(S(F)(F)(F)(F)F)cc2F)[nH]c2c(Br)ccc(Cl)c2c1=O (stereo not drawn) .
## Output 5.92

## Input Recall and state the measured pIC50 for COCSc1[nH]c2c(Br)ccc(Cl)c2c(=O)c1C(C)=O .
## Output < 5.70

## Input Recall and state the measured pIC50 for CSc1c(C(C)=O)c(=O)c2c(Cl)ccc(Br)c2n1S(=O)(=O)c1ccc(C(C)(C)C)cc1 .
## Output < 5.70

## Input Recall and state the measured pIC50 for CC(=O)c1c([S+](C)[O-])n(C(=O)c2ccc(Br)cc2)c2c(Br)ccc(Cl)c2c1=O (stereo not drawn) .
## Output 5.93

## Input Recall and state the measured pIC50 for CSc1c(C(C)=O)c(=O)c2c(Cl)ccc(Br)c2n1S(C)(=O)=O .
## Output < 5.70

## Input Recall and state the measured pIC50 for CC(=O)c1c([S+]([O-])C(C)C)[nH]c2c(Br)ccc(Cl)c2c1=O (stereo not drawn) .
## Output < 5.70
